ASSAY COMMENT: qHTS Assay for Identifying Gametocytocidal Compounds (AID 743244);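 further: on the % scale 0 is the no-effect control and ±100 the full control effect; actives lower the fluorescent signal which means gametocytes are killed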
SETTINGS: P. falciparum 3D7 stage III-V gametocytes, alamarBlue, 72 h; active compounds read low
Inconclusive results are not listed.
ENDPOINT NAME: max response (%)
Answers are plain numbers, in %.

Just so you know, measured max response for Cc1c(OCC(F)(F)F)ccnc1CS(=O)c1nc2ccccc2[nH]1 (stereo not drawn) came out at 1.82

Entry `NP(N)(=O)NC(=O)c1ccc(F)cc1` ; max response = -2.45

Noted for `NCCc1cc(O)c(O)cc1O` : its max response reads 0.974

The measured max response associated with O=c1oc2ccccc2c(O)c1C(CC(O)c1ccc(-c2ccc(Br)cc2)cc1)c1ccccc1 (stereo not drawn) reads -15.4

max response reported for this compound `C#CCN(C)[C@H](C)Cc1ccccc1` : -11.5

Notebook: `CC(C)(N)Cc1ccc(Cl)cc1` , max response read as 12.2

// batch mode: one max response value per listed entry
1. CC(C)(C)NCC(O)c1cc(Cl)c(N)c(Cl)c1 (stereo not drawn)
2. Cc1cccc(C)c1NC(=O)CN1CCCC1=O
3. O=C(O)C(=O)c1cn(Cc2ccccc2)c2ccc(-c3ccc(OC(F)(F)F)cc3)cc12
4. Cn1c(CCCC(=O)O)nc2cc(N(CCCl)CCCl)ccc21
5. CN1C(=S)CN=C(c2ccccc2)c2cc(Cl)ccc21
6. CN(C)[C@@H]1C(=O)C(C(N)=O)=C(O)[C@@]2(O)C(=O)C3=C(O)c4c(O)cccc4[C@@](C)(O)[C@H]3C[C@@H]12
7. C[C@]12CC[C@H]3[C@@H](CCC4=CC(=O)CC[C@@H]43)[C@@H]1CC[C@@H]2OC(=O)CCc1ccccc1
8. COC[C@H]1OC(=O)c2coc3c2[C@@]1(C)C1=C(C3=O)C2CCC(=O)[C@@]2(C)C[C@H]1OC(C)=O (stereo partly drawn)

Found:
1: -5.19; 2: 12.6; 3: 14.9; 4: -0.45; 5: -6.22; 6: 8.32; 7: 0.188; 8: 9.51

// for each compound below, give its max response
1. O=P1(NCCCl)OCCCN1CCCl (stereo not drawn)
2. COc1cc([C@@H]2c3cc4c(cc3[C@H](O)[C@H]3COC(=O)[C@H]23)OCO4)cc(OC)c1OC
3. C#CCOC(C(=O)OCCN(C)C)(c1ccccc1)c1ccccc1
4. CC(COc1ccccc1)N(CCCl)Cc1ccccc1 (stereo not drawn)
5. CCN(CC)CCN1C(=O)CN=C(c2ccccc2F)c2cc(Cl)ccc21
6. CC(=O)Oc1ccccc1C(=O)Nc1ncc([N+](=O)[O-])s1

Found:
4.6
11.4
-0.509
3.46
9.52
33.5

* * *

ASSAY COMMENT: Quantitative High-Throughput drug screen in 47 multiple myeloma cell lines against the NCATS MIPE library collection: FR4_PLB cell viability assay (AID 1918924; further: nearly all actives have a fitted effect of over 35% in size; further: potency means the concentration at half of the fitted maximal effect)
SETTINGS: FR4_PLB myeloma cells viability, CellTiter-Glo ATP, 48 h; series mostly up to 45.8 µM
Inconclusive results are not listed. Activity calls are given as the source filed them. Calls come from the whole dose curve; as a rule, active = well fitted cell-killing curve with a large enough effect; inconclusive = small, poorly fitted or top-dose-only effect, or effect the other way; inactive = no such curve, though single readings can be large or run the other way.
ENDPOINT NAME: Potency

Worked cases, answers included:
// Potency value for `CC1=C2C[C@@H]3[C@@H](CC=C4C[C@@H](O)CC[C@@]43C)[C@@H]2CC[C@]12O[C@H]1C[C@H](C)CN[C@H]1[C@H]2C` : 10.5 µM (active)

`O=c1[nH]c2ccccc2n1CCCN1CCC(n2c(=O)[nH]c3cc(Cl)ccc32)CC1` yielded Potency of inactive

The reported value for `CN(C)CCN(C)CCc1ccc(Cl)c(Cl)c1` in terms of Potency is inactive

Entry `O=C(O)C(=O)c1cn(Cc2ccccc2)c2ccc(-c3ccc(OC(F)(F)F)cc3)cc12` ; Potency = inactive

Value of Potency reported for the compound `Cc1sc2c(c1C)C(c1ccc(Cl)cc1)=N[C@@H](CC(=O)OC(C)(C)C)c1nnc(C)n1-2` is 0.332 µM (active)

Report Potency for every entry below.
1. O=P1(NCCCl)OCCCN1CCCl (configuration not stated)
2. CNC(=O)c1ccc(N2C(=S)N(c3ccc(C#N)c(C(F)(F)F)c3)C(=O)C23CCC3)cc1F

Found:
1. 16.6 µM (active)
2. inactive

* * *

SETTINGS: Ebola virus entry assay, blue channel fluorescence
Calls of active or inactive are those of the source. How the calls were made is not given here.
A correct response names exactly one class from active, inactive

Consider the following illustrative entries.
Lookup: Could you check what this test reported for `O=c1n(CCCN2CCN(c3cccc(Cl)c3)CC2)nc2ccccn12` ?
Found: inactive

Lookup: Entry `CC(=O)O[C@]1(C(C)=O)CC[C@H]2[C@@H]3C=C(C)C4=CC(=O)CC[C@]4(C)[C@H]3CC[C@@]21C` : call = ?
Found: inactive

Lookup: Give the logged outcome of this assay for the following molecule: `Cc1nc(-c2ccc(OCC(C)C)c(C#N)c2)sc1C(=O)O`
Found: inactive

Lookup: Call for entry COC(=O)CCc1ccc(OCC(O)CNC(C)C)cc1 (stereo unspecified) :
Found: active

Lookup: Any idea what this test logged for `Cc1ccc(S(=O)(=O)N[C@@H](CCCCN)C(=O)CCl)cc1` ?
Found: active

New cases:
Lookup: I would be grateful if you could indicate the recorded call for `CCCCCCC[N+](CC)(CC)CCCCc1ccc(Cl)cc1` .
Found: active

Lookup: Write down the call the test reported for this molecule. Item: `CC(=O)SC[C@@H](C)C(=O)N1CCC[C@H]1C(=O)N[C@@H](Cc1ccccc1)C(=O)O`
Found: inactive

Lookup: Test call for this molecule, please: `COc1ccc([C@@H]2Sc3ccccc3N(CCN(C)C)C(=O)[C@@H]2OC(C)=O)cc1`
Found: active

Lookup: Record request — test call for `CCN(CC)CCOC(=O)C(O)(c1ccccc1)c1ccccc1`
Found: inactive

Lookup: # lookup: test call for `CC(C)=CCOc1c2occc2cc2ccc(=O)oc12`
Found: active

Lookup: Each molecule tested received a call. Report the one for `CC(C)(O)c1ccccc1CC[C@@H](SCC1(CC(=O)O)CC1)c1cccc(/C=C/c2ccc3ccc(Cl)cc3n2)c1` .
Found: inactive

Lookup: Look up the recorded call for `CC1=C(C(=O)O)N2C(=O)[C@@H](NC(=O)[C@H](N)c3ccccc3)[C@H]2SC1` in this test.
Found: inactive

Lookup: Per the records of this test, what outcome belongs to `COc1cccc2c1C(=O)c1c(O)c3c(c(O)c1C2=O)C[C@@](O)(C(=O)CO)C[C@@H]3O[C@H]1C[C@H](N)[C@H](O)[C@H](C)O1` ?
Found: active

Lookup: Recorded test call requested for `Clc1cccc(N2CCNCC2)c1`
Found: inactive

Lookup: For `CC[C@@]1(O)C(=O)OCc2c1cc1n(c2=O)Cc2cc3c(CN(C)C)c(O)ccc3nc2-1` , which call appears in the assay record?
Found: inactive

Lookup: Hi, do you know how `CN1CCN(C(c2ccccc2)c2ccccc2)CC1` came out in this test?
Found: active

* * *

ASSAY COMMENT: Quantitative High-Throughput drug screen in 47 multiple myeloma cell lines against the NCATS MIPE library collection: MOLP8_DSMZ cell viability assay (AID 1918977); further: nearly all actives have a fitted effect of over 45% in size; further: potency means the concentration at half of the fitted maximal effect
SETTINGS: MOLP8 myeloma viability, CellTiter-Glo ATP luminescence, 48 h; series mostly up to 45.8 µM
Inconclusive results are not listed. Calls of active or inactive are those of the source. Calls follow the shape of the dose curve; as a rule, active = well fitted cell-killing curve with a large enough effect; inconclusive = small, poorly fitted or top-dose-only effect, or effect the other way; inactive = no such curve, though single readings can be large or run the other way.
ENDPOINT NAME: Potency

Take a look at these entries with their results.
Lookup result for `Cn1c(CCCC(=O)O)nc2cc(N(CCCl)CCCl)ccc21` ; measured Potency: 3320 nM (active)

So for `C[C@@H]1[C@@H](C(=O)C[C@H]2O[C@@H]3O[C@]4(C)CC[C@@H]5[C@H](C)CC[C@@H]([C@H]2C)[C@@]35OO4)O[C@@H]2O[C@]3(C)CC[C@H]4[C@H](C)CC[C@@H]1[C@@]24OO3` , the logged Potency turned out to be 526 nM (active)

Potency reading for `CC1=C2C[C@@H]3[C@@H](CC=C4C[C@@H](O)CC[C@@]43C)[C@@H]2CC[C@]12O[C@H]1C[C@H](C)CN[C@H]1[C@H]2C` : inactive

The recorded Potency for `N[C@@H](Cc1ccc(N(CCCl)CCCl)cc1)C(=O)O` is 5900 nM (active)

Please fill in: Potency reported for CNCC(O)c1ccc(O)cc1 (stereo not drawn) = inactive

Could you tell me Potency for each of these compounds? They are listed below.
1. C[C@@H]1[C@@H](CC(C[C@H]2O[C@@H]3O[C@]4(C)CC[C@@H]5[C@H](C)CC[C@@H]([C@H]2C)[C@@]35OO4)C[S+](=O)([O-])c2ccc(COC(=O)N(C)C)cc2)O[C@@H]2O[C@]3(C)CC[C@H]4[C@H](C)CC[C@@H]1[C@@]24OO3 (stereo partly drawn)
2. O=c1[nH]c2ccccc2n1CCCN1CCC(n2c(=O)[nH]c3cc(Cl)ccc32)CC1
3. O=P1(NCCCl)OCCCN1CCCl (stereo not drawn)

Found:
["187 nM (active)", "inactive", "inactive"]

Source: PubChem BioAssay (NCATS)
